- Assay method text: Dynamic solubility test in biological media and water
- Format: physicochemical
- Run conditions: fassgf or other biorelevant, thermodynamic from solid; FaSSGF, pH 1.6, 24 h

{"Molecule": "CN1CCN(C2CCN(c3ccc(Nc4ncc5sc(C(=O)N(C)C)c(C6CCCC6)c5n4)nc3)CC2)CC1 [crystal form A]", "solubility at 24 h": "> 5380 µg/mL"}

* * *

- Assay method text: Dynamic solubility test in biological media and water
- Type: physicochemical
- Run conditions: thermodynamic from solid; FaSSIF, pH 6.5, 2 h

{"Molecule": "CN1CCN(C2CCN(c3ccc(Nc4ncc5sc(C(=O)N(C)C)c(C6CCCC6)c5n4)nc3)CC2)CC1 [crystal form A]", "solubility at 2 h": "> 5110 µg/mL"}

* * *

- Assay method text: Dynamic solubility test in biological media and water
- Assay type: physicochemical
- Run conditions: thermodynamic from solid; FeSSIF, pH 5.0, 0.5 h

{"Compound": "CN1CCN(C2CCN(c3ccc(Nc4ncc5sc(C(=O)N(C)C)c(C6CCCC6)c5n4)nc3)CC2)CC1 [crystal form A]", "solubility at 0.5 h": "> 5460 µg/mL"}

* * *

- Assay method text: Dynamic solubility test in biological media and water
- Assay type: physicochemical
- Run conditions: thermodynamic from solid; FeSSIF, pH 5.0, 24 h
Quantity: solubility at 24 h

{"Compound": "CN1CCN(C2CCN(c3ccc(Nc4ncc5sc(C(=O)N(C)C)c(C6CCCC6)c5n4)nc3)CC2)CC1 [crystal form A]", "Quantity": "solubility at 24 h", "Obs value": "> 5470 µg/mL"}

* * *

- Assay method text: Moisture absorption study of crystal forms by dynamic vapor sorption (DVS) with XRPD afterwards
- Format: physicochemical
- Run conditions: DVS, with reference to the mass at 50% RH
- Method: Dynamic vapor sorption and desorption analysis of crystal forms were performed using DVS Intrinsic (SMS, UK) to evaluate the hygroscopicity of the crystal forms. The gradient mode was used for the test. The humidity change was 50%-95%-50%. The humidity change amount of each gradient was 15%. The gradient endpoint was determined in the dm/dt manner, with dm/dt less than 0.002% and maintained for 10 minutes as the gradient endpoint, or the maximum maintenance time of each gradient was 60 min. […]
Recorded weight increase at 80% RH during the adsorption process values for a group of molecules are listed next.
Quantity: weight increase at 80% RH during the adsorption process (%)

{"Molecule": "CN1CCN(C2CCN(c3ccc(Nc4ncc5sc(C(=O)N(C)C)c(C6CCCC6)c5n4)nc3)CC2)CC1 [crystal form B]", "Obs value": 0.24}
{"Molecule": "CN1CCN(C2CCN(c3ccc(Nc4ncc5sc(C(=O)N(C)C)c(C6CCCC6)c5n4)nc3)CC2)CC1 [crystal form D]", "Obs value": 0.85}
{"Molecule": "CN1CCN(C2CCN(c3ccc(Nc4ncc5sc(C(=O)N(C)C)c(C6CCCC6)c5n4)nc3)CC2)CC1 [crystal form C]", "Obs value": 0.42}
{"Molecule": "CN1CCN(C2CCN(c3ccc(Nc4ncc5sc(C(=O)N(C)C)c(C6CCCC6)c5n4)nc3)CC2)CC1 [crystal form A]", "Obs value": 0.25}

* * *

- Assay method text: Moisture absorption study of crystal forms by dynamic vapor sorption (DVS) with XRPD afterwards
- Type: physicochemical
- Run conditions: DVS, with reference to the mass at 50% RH

{"Compound": "CN1CCN(C2CCN(c3ccc(Nc4ncc5sc(C(=O)N(C)C)c(C6CCCC6)c5n4)nc3)CC2)CC1 [crystal form B]", "weight increase at 95% RH": "0.69%"}
{"Compound": "CN1CCN(C2CCN(c3ccc(Nc4ncc5sc(C(=O)N(C)C)c(C6CCCC6)c5n4)nc3)CC2)CC1 [crystal form A]", "weight increase at 95% RH": "0.64%"}
{"Compound": "CN1CCN(C2CCN(c3ccc(Nc4ncc5sc(C(=O)N(C)C)c(C6CCCC6)c5n4)nc3)CC2)CC1 [crystal form D]", "weight increase at 95% RH": "4.45%"}
{"Compound": "CN1CCN(C2CCN(c3ccc(Nc4ncc5sc(C(=O)N(C)C)c(C6CCCC6)c5n4)nc3)CC2)CC1 [crystal form C]", "weight increase at 95% RH": "3.45%"}
